In this section, each of the compounds is paired with its reported pIC50.
Target: Isocitrate lyase (Candida albicans, UniProt Q9P8Q7)
Sequence (Q9P8Q7 whole entry): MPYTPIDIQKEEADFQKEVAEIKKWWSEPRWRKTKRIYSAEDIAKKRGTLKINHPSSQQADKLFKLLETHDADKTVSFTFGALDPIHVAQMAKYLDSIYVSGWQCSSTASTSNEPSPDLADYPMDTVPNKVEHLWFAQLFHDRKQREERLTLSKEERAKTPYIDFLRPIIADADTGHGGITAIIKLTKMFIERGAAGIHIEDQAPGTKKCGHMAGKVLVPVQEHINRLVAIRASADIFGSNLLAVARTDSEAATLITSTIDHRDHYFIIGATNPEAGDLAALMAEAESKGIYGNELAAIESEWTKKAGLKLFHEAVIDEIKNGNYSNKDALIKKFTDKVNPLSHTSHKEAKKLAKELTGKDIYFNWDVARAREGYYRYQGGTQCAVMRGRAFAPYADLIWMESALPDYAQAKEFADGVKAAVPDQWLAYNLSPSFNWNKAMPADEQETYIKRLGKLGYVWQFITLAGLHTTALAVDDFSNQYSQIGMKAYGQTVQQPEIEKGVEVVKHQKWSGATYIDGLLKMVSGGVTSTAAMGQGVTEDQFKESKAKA
// field semantics: pIC50 = negative decimal log of concentration (mol/L)

>>> numeric_readout("CC1=C(O)/C(=C/[C@H](C)CCC/C(C)=C/CC/C(C)=C/CCc2ccoc2)OC1=O")
4.09
>>> numeric_readout("COC1C=C(CCC/C(C)=C\\CC/C(C)=C\\CC[C@@H](C)/C=C2\\OC(=O)C(C)=C2O)C(OC)O1 (some centres undefined)")
4.02
>>> numeric_readout("COC(=O)C(C)(O)[C@@](O)(C[C@H](C)CC/C=C(/C)CC/C=C(/C)CCCc1ccoc1)C(=O)OC (some centres undefined)")
3.60

// Input: COC(=O)C(C)(O)[C@](O)(C[C@H](C)CC/C=C(/C)CC/C=C(/C)CCCC1=CCN(CC(=O)O)C1=O)C(=O)OC (some centres undefined) . Output its pIC50 only.
3.45

// Input: CC1=C(O)/C(=C/[C@H](C)CC/C=C(/C)CC/C=C(/C)CCCC2=CC(=O)OC2O)OC1=O (some centres undefined) . Output its pIC50 only.
4.04

// Input: CC1=C(O)/C(=C/[C@H](C)CC/C=C(/C)CC/C=C(/C)CCCc2ccoc2)OC1=O . Output its pIC50 only.
4.09

// Input: C=C(CC(=O)O)C(=O)O [ITACONATE] . Output its pIC50 only.
4.42

Provenance of the data: ChEMBL document CHEMBL1149882
